These data points were gathered from PubChem BioAssay AID850.

tested on: Saccharomyces cerevisiae growth inhibition, permissive control; test: yeast lifespan-shortening chemical project counter-assay, dose-response inhibition of growth under permissive conditions (AID 850);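 further: growth read as optical density after one day of incubation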
Calls of active or inactive are those of the source. How the calls were made is not given here.
Please answer using one outcome listed in active, inactive

compound=O=C(NNC(=S)NC(=O)C12CC3CC(CC(C3)C1)C2)c1ccncc1 system_tested="Saccharomyces cerevisiae growth inhibition, permissive control" qualitative_label=active
compound="CCCCCCN1N=C(C)C(C(=O)c2ccc(Cl)cc2)C1=O (stereo not given)" system_tested="Saccharomyces cerevisiae growth inhibition, permissive control" qualitative_label=active
compound=CCCS(=O)(=O)c1nnnn1-c1cccc(OC)c1 system_tested="Saccharomyces cerevisiae growth inhibition, permissive control" qualitative_label=active
compound=O=[N+]([O-])c1ccc(O)c2ncccc12 system_tested="Saccharomyces cerevisiae growth inhibition, permissive control" qualitative_label=active
compound=c1ccc(Cc2nnc3sc(-c4ccc5c(c4)OCCO5)nn23)cc1 system_tested="Saccharomyces cerevisiae growth inhibition, permissive control" qualitative_label=inactive

Exam item: Test call, this compound: `CCN1/C(=C/c2ccc3cc(C)ccc3[n+]2CC)Sc2ccccc21`
Marked response: active
